meta.source: the supplement of paper PMC10981050

# Tested on: OCI-AML2;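 also: after 48 h exposure read by CellTiter-Glo luminescence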
# Assay method text: cell viability relative to vehicle control; higher = less cytotoxic
# Experimental parameters: 10 µM; SRSF2 genotype: wt/wt
Consider the cut-off 40%. If the recorded cell viability is strictly smaller, the label is criterion met; if not, the label is criterion not met.

{"Compound": "CC(=O)Nc1cccc(-n2c(=O)n(C3CC3)c(=O)c3c(Nc4ccc(I)cc4F)n(C)c(=O)c(C)c32)c1", "Category label": "criterion not met"}

Exercise: Decide: cell viability of Cc1ccc(-n2sc(=O)n(Cc3ccc(F)cc3)c2=O)cc1 strictly below 40%?
Key: criterion not met

Exercise: Does the reported cell viability of COc1ccc(CCc2cc(OC)c(OC)c(OC)c2)cc1O stay below 40%?
Key: criterion met

Exercise: # strict comparison: is reported cell viability < 40%? input = Clc1ccc(NN=C(c2ccccc2)c2ccccn2)nc1
Key: criterion met

Exercise: Dear colleague, could you confirm whether cell viability of CC(=O)Nc1nc(C)c(-c2ccc(Cl)c(S(=O)(=O)NCCO)c2)s1 falls below 40%? Thanks.
Key: criterion met

Exercise: Dear reviewer, please state whether CC[C@@H](C)Nc1cc(C(=O)N[C@H]2C[C@H]3CC[C@@H](C2)N3c2ccc(C(=O)C3CC3)cn2)c(C)cc1C(N)=O has cell viability strictly beneath 40%.
Key: criterion met

Exercise: Field: below-cutoff. Rule: recorded cell viability strictly less than 40%. Subject: O=C(O)c1ccc(CN2CCC(CN[C@@H]3C[C@H]3c3ccccc3)CC2)cc1
Key: criterion not met

Exercise: Given the entry COc1cc(/C=C/c2ccc(O)c(O)c2)cc(OC)c1 [3'-Hydroxypterostilbene] , would its reported cell viability be below 40%?
Key: criterion not met

Exercise: Is it true that cell viability reported for CC(NC(=O)Cc1cc(F)cc(F)c1)C(=O)NC1C(=O)N(C)c2ccccc2-c2ccccc21 (centres undefined) is less than 40%?
Key: criterion not met
